- Subject Of Test: sEH enzyme (Homo sapiens, UniProt P34913)
- Sequence (P34913 whole entry): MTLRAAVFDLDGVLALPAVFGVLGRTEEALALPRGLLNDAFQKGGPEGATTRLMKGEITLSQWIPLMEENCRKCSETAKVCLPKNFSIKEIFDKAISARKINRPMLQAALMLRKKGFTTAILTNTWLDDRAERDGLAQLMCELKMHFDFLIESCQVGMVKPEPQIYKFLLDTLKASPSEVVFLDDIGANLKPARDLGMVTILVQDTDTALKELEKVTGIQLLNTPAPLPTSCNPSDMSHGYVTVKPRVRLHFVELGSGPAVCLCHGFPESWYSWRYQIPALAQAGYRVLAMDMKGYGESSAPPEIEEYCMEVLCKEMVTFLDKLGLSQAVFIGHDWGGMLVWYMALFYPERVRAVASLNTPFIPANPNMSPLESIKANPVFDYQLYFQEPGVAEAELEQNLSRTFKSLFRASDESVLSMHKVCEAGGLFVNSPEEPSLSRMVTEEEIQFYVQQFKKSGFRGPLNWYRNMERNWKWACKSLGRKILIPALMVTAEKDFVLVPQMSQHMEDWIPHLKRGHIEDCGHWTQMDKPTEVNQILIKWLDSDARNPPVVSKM
- Measurement Protocol: sEH enzyme kinetics
- Type: biochemical
- Setup Conditions: Ki (μM), Dixon plots
Assay Metric: Ki (µM)
Return type: number; implicit unit µM.

{"Molecule": "O=C(CCCCCCCCc1ccc(O)c(O)c1)c1c(O)cccc1O [Compound 20, malabaricone C]", "Ki, µM": 11.1}

IN: Return value of Ki for input O=C(CCCCCCCCc1ccc(O)cc1)c1c(O)cccc1O [Compound 19, malabaricone B] , no commentary.
OUT: 20.9
